Tested on: LNCaP and PC-3 cells
protocol: MTT viability assay in prostate cancer cells
Type: cell-based
experimental_conditions: read-out: IC50, antiproliferative effect (cell viability); LNCaP and PC-3 cells, MTT, 24 hours, serum-free medium
measured_endpoint: IC50

molecule: Cc1c(C)c2c(c(C)c1O)CCC(C)(CCCC(C)C)O2 (stereo not shown)
measured: 15 to 20 µM
